Data origin, for the record: the kinase profiling compilation of Christmann-Franck et al. (2016)

# kinase still bound, per cent of control per entry
Target: ACVR2A (human)
Experiment: KINOMEscan competition binding
Conditions: compound 10.0 µM
The answer should read as a number with its unit following.

The cases that follow already have their kinase still bound, per cent of control on record.
compound_structure: COc1ccc(-c2ccc3c(N4CCOCC4)nc(N4C[C@@H](C)O[C@@H](C)C4)nc3n2)cc1CO
system_name: ACVR2A (human)
kinase still bound, per cent of control: 100%
--
compound_structure: CCC(=O)N1CCN(c2ccc(-n3c(=O)ccc4cnc5ccc(-c6cnc7ccccc7c6)cc5c43)cc2C(F)(F)F)CC1
system_name: ACVR2A (human)
kinase still bound, per cent of control: 47%
--
compound_structure: COC(=O)Nc1ccc(-c2nc(N3CCOCC3)c3cnn(C4CCN(C(=O)OC)CC4)c3n2)cc1
system_name: ACVR2A (human)
kinase still bound, per cent of control: 100%

Give kinase still bound, per cent of control for CC(C)n1nc(-c2cc3cc(O)ccc3[nH]2)c2c(N)ncnc21
0.5%

====

# per cent of control per entry
Target: RPS6KA3 KD1 KD2 (human)
Settings: compound 1.0 µM
Provide only the numeric value, understood in %.

compound_structure: COC(=O)Nc1ccc(-c2nc(N3CCOCC3)c3cnn(C4CCN(C(=O)OC)CC4)c3n2)cc1
unit_spec: %
per cent of control: 88

compound_structure: COc1ccc(-c2ccc3c(N4CCOCC4)nc(N4C[C@@H](C)O[C@@H](C)C4)nc3n2)cc1CO
unit_spec: %
per cent of control: 103

compound_structure: CCC(=O)N1CCN(c2ccc(-n3c(=O)ccc4cnc5ccc(-c6cnc7ccccc7c6)cc5c43)cc2C(F)(F)F)CC1
unit_spec: %
per cent of control: 96

The record that follows has no per cent of control shown yet.
Give per cent of control for CC(C)n1nc(-c2cc3cc(O)ccc3[nH]2)c2c(N)ncnc21
63

====

Molecular target: SNRK (human) (UniProt Q9NRH2)
Sequence (Q9NRH2 whole entry, looked up): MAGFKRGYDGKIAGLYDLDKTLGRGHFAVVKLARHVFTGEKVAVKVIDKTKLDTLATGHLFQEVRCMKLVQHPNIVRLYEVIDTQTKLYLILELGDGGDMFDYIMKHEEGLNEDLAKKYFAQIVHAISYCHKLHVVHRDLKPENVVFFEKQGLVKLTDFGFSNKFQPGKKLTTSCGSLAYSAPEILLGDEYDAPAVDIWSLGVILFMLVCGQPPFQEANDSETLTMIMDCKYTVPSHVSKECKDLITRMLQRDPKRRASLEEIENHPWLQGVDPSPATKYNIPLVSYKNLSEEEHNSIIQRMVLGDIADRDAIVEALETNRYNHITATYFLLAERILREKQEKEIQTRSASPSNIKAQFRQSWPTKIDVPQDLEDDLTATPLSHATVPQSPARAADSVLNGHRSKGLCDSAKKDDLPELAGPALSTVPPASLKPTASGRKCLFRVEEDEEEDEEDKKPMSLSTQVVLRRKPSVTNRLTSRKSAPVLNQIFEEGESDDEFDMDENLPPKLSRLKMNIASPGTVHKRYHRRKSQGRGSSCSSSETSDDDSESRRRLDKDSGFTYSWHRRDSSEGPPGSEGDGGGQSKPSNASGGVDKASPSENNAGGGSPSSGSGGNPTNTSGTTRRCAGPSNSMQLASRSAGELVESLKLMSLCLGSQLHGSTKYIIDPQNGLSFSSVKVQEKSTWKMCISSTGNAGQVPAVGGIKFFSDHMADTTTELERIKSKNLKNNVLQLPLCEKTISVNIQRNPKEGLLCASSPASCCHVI
Test: KINOMEscan competition binding
Settings: compound 10.0 µM
measurement_name: kinase still bound, per cent of control (%)
Provide only the numeric value, understood in %.

The cases that follow already have their kinase still bound, per cent of control on record.
compound_structure: CC(C)n1nc(-c2cc3cc(O)ccc3[nH]2)c2c(N)ncnc21
unit_spec: %
kinase still bound, per cent of control: 100

compound_structure: COc1ccc(-c2ccc3c(N4CCOCC4)nc(N4C[C@@H](C)O[C@@H](C)C4)nc3n2)cc1CO
unit_spec: %
kinase still bound, per cent of control: 48

compound_structure: COC(=O)Nc1ccc(-c2nc(N3CCOCC3)c3cnn(C4CCN(C(=O)OC)CC4)c3n2)cc1
unit_spec: %
kinase still bound, per cent of control: 100

The record that follows has no kinase still bound, per cent of control shown yet.
Give kinase still bound, per cent of control for CCC(=O)N1CCN(c2ccc(-n3c(=O)ccc4cnc5ccc(-c6cnc7ccccc7c6)cc5c43)cc2C(F)(F)F)CC1
60

====

Target: ACVR1B (human) (UniProt P36896)
Sequence (P36896 whole entry, looked up): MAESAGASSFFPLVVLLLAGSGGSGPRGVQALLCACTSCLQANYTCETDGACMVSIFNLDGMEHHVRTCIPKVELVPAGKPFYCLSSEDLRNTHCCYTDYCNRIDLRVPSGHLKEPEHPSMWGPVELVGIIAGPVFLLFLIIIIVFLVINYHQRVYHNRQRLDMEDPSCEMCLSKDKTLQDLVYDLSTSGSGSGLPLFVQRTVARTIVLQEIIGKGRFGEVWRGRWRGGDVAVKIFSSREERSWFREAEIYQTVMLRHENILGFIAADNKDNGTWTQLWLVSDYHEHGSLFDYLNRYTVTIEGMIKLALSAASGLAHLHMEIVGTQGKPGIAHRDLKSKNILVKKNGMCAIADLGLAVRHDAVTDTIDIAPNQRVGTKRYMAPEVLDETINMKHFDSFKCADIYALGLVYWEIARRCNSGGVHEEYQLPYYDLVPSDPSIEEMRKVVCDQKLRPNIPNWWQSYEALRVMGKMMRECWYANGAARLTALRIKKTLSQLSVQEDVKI
Experiment: KINOMEscan competition binding
Details: compound 10.0 µM
# kinase still bound, per cent of control per entry
The answer should read as a number with its unit following.

The cases that follow already have their kinase still bound, per cent of control on record.
compound_structure: CC(C)n1nc(-c2cc3cc(O)ccc3[nH]2)c2c(N)ncnc21
system_name: ACVR1B (human) (UniProt P36896)
kinase still bound, per cent of control: 11%
//
compound_structure: COC(=O)Nc1ccc(-c2nc(N3CCOCC3)c3cnn(C4CCN(C(=O)OC)CC4)c3n2)cc1
system_name: ACVR1B (human) (UniProt P36896)
kinase still bound, per cent of control: 100%
//
compound_structure: CCC(=O)N1CCN(c2ccc(-n3c(=O)ccc4cnc5ccc(-c6cnc7ccccc7c6)cc5c43)cc2C(F)(F)F)CC1
system_name: ACVR1B (human) (UniProt P36896)
kinase still bound, per cent of control: 45%

The record that follows has no kinase still bound, per cent of control shown yet.
Give kinase still bound, per cent of control for COc1ccc(-c2ccc3c(N4CCOCC4)nc(N4C[C@@H](C)O[C@@H](C)C4)nc3n2)cc1CO
91%
